- runDescription: ATG_MRE_CIS: Attagene CIS-FACTORIAL HepG2 Assay for human Metal Responsive Element (MRE) (AID 2282954)
- experimentalConditions: HepG2 MRE cis-reporter transcription, Attagene multiplex; actives raise or lower the signal
Activity calls are given as the source filed them. Rule for the calls: active = hit-call score of the fitted dose curve at least 0.9, where 1 is the maximum; inactive = score below 0.9.
Valid outcomes are listed here; reply with one: Yes (active), No (inactive)

Outcome? O=C(O)CCCc1ccc(N(CCCl)CCCl)cc1
No

State the result this test recorded for C=CCN(CC=C)C(=O)C(Cl)Cl .
No

What call does the record list for C=CCc1ccc(OC(=O)Cc2ccccc2)c(OC)c1 ?
No

====

- runDescription: ATG_PXRE_CIS: Attagene CIS-FACTORIAL HepG2 Assay for human Pregnane X Receptor Element (PXRE) (AID 2282957)
- experimentalConditions: HepG2 Attagene CIS-FACTORIAL PXRE reporter, mRNA; actives raise or lower the signal
Active and inactive are the calls of the source. Rule for the calls: active = hit-call score of the fitted dose curve at least 0.9, where 1 is the maximum; inactive = score below 0.9.
Your answer must be one of the following: active, inactive

Examples from the recorded data:
CC[N+](=O)[O-]    inactive
CC(C)C(=O)Cl    inactive
c1ccc2c(c1)CCCC2    inactive
C[C@]12CC[C@H]3[C@@H](CC[C@@]45O[C@@H]4C(O)=C(C#N)C[C@]35C)[C@@H]1CC[C@@H]2O    active
CC(C)(O)C#N    active
ClCCCCCCCl    inactive
N#CCCCCC#N    inactive
NNc1ccccc1    active
C[C@]12CC[C@H](O)C[C@H]1CC[C@@H]1[C@@H]2C[C@@H](O)[C@]2(C)[C@@H](C3=CC(=O)OC3)CC[C@]12O    active
CC(C)CCCCCCCOC(=O)c1ccccc1C(=O)OCCCCCCCC(C)C    active

In this assay, the call recorded for Nc1ccccc1C(=O)OCCc1ccccc1 was what?
active

Which outcome was assigned to O=[N+]([O-])C=Cc1ccccc1 in this test?
active

For c1ccc(P(c2ccccc2)c2ccccc2)cc1 , which call appears in the assay record?
active

In this assay, the call recorded for COC(=O)c1ccccc1S(=O)(=O)NC(=O)Nc1nc(C)cc(C)n1 was what?
inactive

Each compound tested received a call. Report the one for O=C(CCl)c1ccccc1 .
inactive

# lookup: test call for [Cl][Sb]([Cl])[Cl]
inactive

Can you look up the reported call for CC1CCC(=O)O1 (stereo not given) for me?
inactive

How did this test come out for CCOC(=O)N(C)N=O ?
active

So what was the verdict on C[N+](=O)[O-] in this test?
inactive

Hi, do you know how O=C(NCNC(=O)NC1C(=O)NC(=O)N1CO)NC1C(=O)NC(=O)N1CO (stereo not given) came out in this test?
inactive

// return assay outcome for C=Cc1cccc(CCl)c1
active

Record lookup: outcome of this test for O=C(O)C(Br)Br ?
inactive

Identify the outcome logged in this assay for the compound shown: CC(C)c1ccc(O)cc1
active

Hello, I am checking results. What call was entered for Oc1cc(Cl)ccc1Cl ?
active

What call does the record list for CN1C(=O)CCS(=O)(=O)C1c1ccc(Cl)cc1 (stereo not given) ?
inactive

Tell me the recorded outcome of this test for CC(Cc1ccc(C(C)(C)C)cc1)CN1C[C@@H](C)O[C@@H](C)C1 (stereo not given in full) .
active

Identify the outcome logged in this assay for the compound shown: CC(C)(c1cc(Cl)c(O)c(Cl)c1)c1cc(Cl)c(O)c(Cl)c1
inactive

So what was the verdict on CCC1CCC(=O)O1 (stereo not given) in this test?
active

Per the records of this test, what outcome belongs to CCN(CC)C(=S)S ?
active

Entry C#CC1(O)CCCCC1 : call = ?
inactive
